- System: Hs-578T
- Assay Info: NCI tumour cell line growth inhibition, 48 h
The source made the active and inactive calls. No stated cut-off is given here; in the data, active = GI50 up to about 1.1 µM and inactive = higher.
Hello, when you answer, please use one of the following outcomes: 1 (active), -1 (inactive)

Worked set:
INSERT INTO assay_data (compound, answer_label) VALUES
  ('Cc1cc(C)c(S(=O)(=O)N[C@@H](/C=C(\Br)CO)C(C)C)c(C)c1', -1),
  ('Cc1cc(Cl)ccc1Nc1nc2c(s1)C(=O)c1ccccc1C2=O', -1),
  ('O=C1Nc2ccccc2/C1=N/NC(=S)Nc1ccccc1Cl', -1),
  ('C=C(CC)C(=O)c1ccc(OCC(=O)O)c(Cl)c1Cl [ETHACRYNIC ACID]', -1),
  ('CC1=NN(c2nc(N)nc(C(C)Cl)n2)C(C)(C)C1 (centres undefined)', -1),
  ('CC(=O)OCC12C(OC(C)=O)C[C@@H](C)C3(CC(c4ccoc4)OC3=O)C1CCC(O)C21CO1 (some centres undefined)', -1);

Please let me know the test result on file for CCC(C)SC1SCC2C(=O)N(C)C3(CC3C)C(=O)OCC(NC(=O)c3nc4ccccc4cc3O)C(=O)NC(C)C(=O)N(C)C1C(=O)N(C)C1(CC1C)C(=O)OCC(NC(=O)c1nc3ccccc3cc1O)C(=O)NC(C)C(=O)N2C (centres undefined) .
1

Please let me know the test result on file for CCOC(=O)c1sc2c(c1OC(=O)c1ccco1)c(=O)n(-c1ccccc1)c(=S)n2-c1ccccc1 .
-1

Please let me know the test result on file for COC(=O)C1=COC2OC3CC1C2C(C)O3 (centres undefined) .
-1

* * *

Each entry below carries its reported GI50.
- Tested on: SNB-19
- Assay Info: NCI tumour cell line growth inhibition, 48 h
Where a name gives a salt, the structure may show the parent alone. Active and inactive are the calls of the source. No stated cut-off is given here; in the data, active = GI50 up to about 1.1 µM and inactive = higher. Square brackets hold non-standard residues; d marks the D form. Peptide text beside a SMILES is read from it. Phe(4-Cl) = N[CH](Cc1ccc(Cl)cc1)C(=O)O; 2Nal = N[CH](Cc1ccc2ccccc2c1)C(=O)O; 3Pal = N[CH](Cc1cccnc1)C(=O)O

Observe how each entry below is paired with its result.
INSERT INTO results (compound, value_observed) VALUES
  ('O=C1[C@@H]2C3SC(c4ccccc43)[C@@H]2C(=O)N1c1ccccc1', '41.9 µM (inactive)'),
  ('OCCCc1ccc2c(c1)[C@H](CO)[C@@H](c1ccc(O)cc1)O2', '> 100 µM (inactive)'),
  ('NCC#CCNCCCN1CC1', '> 100 µM (inactive)'),
  ('C#Cc1cccc(Nc2ncnc3cc(OCCOC)c(OCCOC)cc23)c1 [ERLOTINIB HYDROCHLORIDE]', '< 0.01 µM (active)'),
  ('CCN(CC)CCNc1ccc([N+](=O)[O-])c2nc3ccc(OC)cc3c(N)c12', '1.67 µM (inactive)'),
  ('O=C(O)CSC(CC(=O)c1ccc(Cl)cc1)c1ccc(Cl)cc1 (centres undefined)', '42 µM (inactive)'),
  ('Cc1cc2nc3c(C#N)c(C)c(CCCl)c(Cl)n3c2cc1C', '10.8 µM (inactive)'),
  ('O=c1nc(N2CCCC2)nc(N2CCCC2)s1', '> 100 µM (inactive)');

What does the data say about its GI50? Entry: CC(=O)NC(Cc1ccc2ccccc2c1)C(=O)NC(Cc1ccc(Cl)cc1)C(=O)NC(Cc1cccnc1)C(=O)NC(CO)C(=O)NC(Cc1ccc(O)cc1)C(=O)NC(CCCN=C(N)N)C(=O)NC(CC(C)C)C(=O)NC(CCCN=C(N)N)C(=O)N1CCCC1C(=O)NC(C)C(N)=O (centres undefined) (Ac-[2Nal][Phe(4-Cl)][3Pal]SYRLRPA-NH2; configuration not given here)
> 100 µM (inactive)

What does the data say about its GI50? Entry: CCCN1C(=O)CNC(=O)c2[nH]cnc21
> 100 µM (inactive)

What does the data say about its GI50? Entry: CN1CC(c2ccccc2)N(CCCCN2CC(c3ccccc3)N(C)CC2c2ccccc2)CC1c1ccccc1 (centres undefined)
54.7 µM (inactive)

What does the data say about its GI50? Entry: Cc1cc(N(CCC#N)CCC#N)ccc1C(=N/NC(=O)c1cc(Cl)ccc1O)/N=N/c1cccc(Cl)c1
22.9 µM (inactive)

What does the data say about its GI50? Entry: O=C1NC(c2ccccc2)(c2ccccc2)C(=O)N1CCCCCCN1C(=O)NC(c2ccccc2)(c2ccccc2)C1=O
12.2 µM (inactive)

* * *

- Test system: SK-MEL-28
- Assay Info: NCI tumour cell line growth inhibition, 48 h
Calls of active or inactive are those of the source. Rule as the data show it: active = GI50 up to about 1.1 µM and inactive = higher.
Each entry below carries its reported GI50.

INSERT INTO results (compound, value_observed) VALUES
  ('Nc1nn2c(=O)c3ccccc3nc2s1', '> 100 µM (inactive)'),
  ('[O-]c1c[n+](-c2ccccc2)no1', '> 100 µM (inactive)'),
  ('OCCCc1cc(O)c2c(c1)C(CO)C(c1ccc(O)c(O)c1)O2 (stereo unspecified)', '> 100 µM (inactive)');

What does the data say about its GI50? Entry: Cn1cnc(S[C@H]2[C@H]3C(=O)C=C4S[C@H]5C[C@]42C2=C(N5)C(=O)c4[nH]cc5c4C2=[N+]3CC5)c1C[C@H](N)C(=O)O
16.8 µM (inactive)

What does the data say about its GI50? Entry: NCC#CCNCCCN1CC1
> 100 µM (inactive)

What does the data say about its GI50? Entry: CN1CCc2cc(N)cc3c2C1Cc1ccc2c(c1-3)OCO2 (stereo unspecified)
27.2 µM (inactive)

What does the data say about its GI50? Entry: c1ccc2sc(C3(N4CCCCCC4)CCCCC3)cc2c1
26.1 µM (inactive)

What does the data say about its GI50? Entry: COC(=O)C1=C(c2ccc(OC)c(OC)c2)OC(c2ccc(OC)c(OC)c2)C1 (stereo unspecified)
45.1 µM (inactive)

What does the data say about its GI50? Entry: Cc1cc2c(cc1-c1cc3c(cc1C)C(C(C)C)=C(O)C(=O)/C3=C\Nc1cccc3c(N)cccc13)/C(=C/Nc1cccc3c(N)cccc13)C(=O)C(O)=C2C(C)C
> 100 µM (inactive)

What does the data say about its GI50? Entry: CCOC(=O)CCC(NC(=O)c1ccc(Nc2nc3cc(C(F)(F)F)ccc3nc2C(=O)OCC)cc1)C(=O)OCC (stereo unspecified)
12.1 µM (inactive)

What does the data say about its GI50? Entry: Cc1nc(C(N)=S)sc1C(/C=C/c1ccc(Cl)c(Cl)c1)=N/NC(C)(C)C
> 100 µM (inactive)

What does the data say about its GI50? Entry: CC(C(=O)O)C1Nc2ccccc2NC1=O (stereo unspecified)
> 100 µM (inactive)

What does the data say about its GI50? Entry: Cc1ccc2ccccc2c1NC1=NCCO1
> 100 µM (inactive)

* * *

- Tested on: UACC-62
- Assay Info: NCI tumour cell line growth inhibition, 48 h
Active and inactive are the calls of the source. Cut-off read from the data, not from the text of the source: active = GI50 up to about 1.1 µM and inactive = higher.
Hello, when you answer, please use one of the following outcomes: active, inactive

Worked set:
INSERT INTO measurements (compound, answer_label) VALUES
  ('COc1ccc(-c2cc(=O)c3c(O)c(OC)c(O)c(OC)c3o2)cc1OC', 'inactive'),
  ('C=CCc1c(O)c2nsnc2c2nsnc12', 'inactive'),
  ('CCN(CC)CCNc1ccc([N+](=O)[O-])c2nc3ccc(OC)cc3c(N)c12', 'inactive'),
  ('CSc1nnc(SCc2nn3c(=O)cc(C)nc3s2)s1', 'inactive'),
  ('NC(=S)NS(=O)(=O)c1ccc(Cl)cc1Cl', 'inactive');

Please let me know the test result on file for ClCc1nc2cc(Cl)ccc2o1 .
inactive

Please let me know the test result on file for COC[C@@H](/N=C/N1CCc2cc(OC)c(OC)cc2C1)C(C)(C)C .
inactive

Please let me know the test result on file for Cc1cc(S(N)(=O)=O)c(S/C(=N\Nc2ccc([N+](=O)[O-])cc2)c2ccc(Cl)cc2)cc1Cl .
inactive

Please let me know the test result on file for O=C1C(NCCc2ccc(O)c(O)c2)=CC(=O)c2ncccc21 .
inactive

* * *

Each entry below carries its reported GI50.
- Test system: 786-0
- Assay Info: NCI tumour cell line growth inhibition, 48 h
The source made the active and inactive calls. Cut-off read from the data, not from the text of the source: active = GI50 up to about 1.1 µM and inactive = higher.

INSERT INTO measurements (compound, quantity_kind, value_observed) VALUES
  ('CCOC(=O)c1c(NC(=O)c2cccs2)sc2c1CCC2', 'GI50', '> 100 µM (inactive)'),
  ('O=C(/C=C(\O)C(=O)O)/C=C(\O)c1ccccc1Cl', 'GI50', '> 100 µM (inactive)'),
  ('Cc1cc2c(cc1-c1cc3c(cc1C)C(C(C)C)=C(O)C(=O)/C3=C\Nc1cccc3c(N)cccc13)/C(=C/Nc1cccc3c(N)cccc13)C(=O)C(O)=C2C(C)C', 'GI50', '> 100 µM (inactive)');

Lab note: need GI50 for CN(C)CCSCCO on 786-0, anyone have it?
> 100 µM (inactive)

Lab note: need GI50 for Cc1ccc(S(=O)(=O)NC(=O)C2(Br)S(=O)(=O)OCCOS2(=O)=O)cc1 on 786-0, anyone have it?
> 100 µM (inactive)

Lab note: need GI50 for Cn1c(=O)c2ccccc2[n+]2c(-c3cccc([N+](=O)[O-])c3)csc12 on 786-0, anyone have it?
54.3 µM (inactive)

Lab note: need GI50 for COC(=O)/C=C/N1CC1 on 786-0, anyone have it?
> 10 µM (inactive)

Lab note: need GI50 for Cc1ccc2[nH]c3c(c2c1)C1CCC(C(C)(C)C)CC1C1C(=O)N(c2ccc4c(c2)OCO4)C(=O)C31 (stereo unspecified) on 786-0, anyone have it?
1.63 µM (inactive)

Lab note: need GI50 for S=C(N/N=C\C(=N/NC(=S)N1CCCCC1)c1ccccc1)N1CCCCC1 on 786-0, anyone have it?
1.85 µM (inactive)

Lab note: need GI50 for O=[N+]([O-])/C(C(Cl)=C(Cl)Cl)=C(\N1CCOCC1)n1nnc2ccccc21 on 786-0, anyone have it?
22 µM (inactive)

Lab note: need GI50 for CCc1cc2c(oc3c4ccccc4ccc23)c(=O)[nH]1 on 786-0, anyone have it?
> 10 µM (inactive)
